These data points were gathered from ChEMBL document CHEMBL1130640.

Test system: CEM-TK(-)
Test: Compound was tested for anti-HIV-2 activity in CEM/TK- cell line
Format: functional, cell-based
Conditions: Homo sapiens
pEC50: −log10 of the molar value.
Readout: pEC50

[Q] Which pEC50 reading was recorded for the compound Cc1cn([C@H]2C=C[C@@H](CO)O2)c(=O)[nH]c1=O ?
[A] < 4.00

* * *

System: CCRF-CEM
Experiment: Compound was tested for anti-HIV-2 activity in CEM/0 cell line.
Assay type: functional, cell-based
Conditions: Homo sapiens
Readout: EC50 (µM)
Response body: numeric value in µM, unit text excluded.

Guide cases for EC50, answers given:
COC(=O)COP(=O)(OCC1C=CC(n2cc(C)c(=O)[nH]c2=O)O1)Oc1ccccc1 (centres undefined) : 50
CCOC(=O)C(C)OP(=O)(OCC1C=CC(n2cc(C)c(=O)[nH]c2=O)O1)Oc1ccccc1 (centres undefined) : 23
COC(=O)C(C)OP(=O)(OCC1C=CC(n2cc(C)c(=O)[nH]c2=O)O1)Oc1ccccc1 (centres undefined) : 5

// moving on: another record for EC50
[Q] Which EC50 reading was recorded for the compound CCOC(=O)COP(=O)(OCC1C=CC(n2cc(C)c(=O)[nH]c2=O)O1)Oc1ccccc1 (centres undefined) ?
[A] 12.5

* * *

Tested on: CCRF-CEM
Assay: Compound was tested for anti-HIV-1 activity in CEM/0 cell line
Type: functional, cell-based
Settings: Homo sapiens
Readout: EC50 (nM)
Response body: numeric value in nM, unit text excluded.

[Q] Which EC50 reading was recorded for the compound Cc1cn([C@H]2C=C[C@@H](CO)O2)c(=O)[nH]c1=O ?
[A] 250
